- Tested on: Colletotrichum lindemuthianum
- RUN DESCRIPTION: Colletotrichum lindemuthianum in vitro cell test
- Format: cell-based
- CONDITION DESCRIPTION: 144 h, 50 μMol/l of active ingredient, liquid culture, 6 days incubation, read-out: efficacy (inhibition of fungal growth)
In this section, each of the molecules is paired with its reported inhibition at 50 µM.

{"columns": ["MOLECULE", "MEASURED ENDPOINT", "RESULT"],
 "data": [
  ["Cc1cccc(Sc2nnc(C)c(C)c2C2=NOCC(c3ccc(C)s3)N2)c1 (racemic)", "inhibition at 50 µM", "90 to 100%"],
  ["Cc1ccc([C@H]2CON=C(c3c(Sc4cccc(OC(F)(F)F)c4)nnc4ccccc34)N2)s1 (racemic)", "inhibition at 50 µM", "90 to 100%"],
  ["Cc1ccc(Sc2nnc(C)c(C)c2C2=NOC[C@@H](c3cc(C)sc3C)N2)cc1 (racemic)", "inhibition at 50 µM", "70 to 79%"],
  ["Cc1ccc([C@H]2CON=C(c3c(Sc4ccc(F)c(F)c4)nnc4ccccc34)N2)s1 (racemic)", "inhibition at 50 µM", "70 to 79%"]
]}

Input line: I have this molecule here, Cc1cc([C@H]2CON=C(c3c(Sc4cccc(F)c4)nnc(C)c3C)N2)c(C)s1 (racemic) , and I need its recorded inhibition at 50 µM.
Output line: 90 to 100%

Input line: I have this molecule here, Cc1ccc([C@@H]2CON=C(c3c(Sc4cccc5ccccc45)nnc4ccccc34)N2)s1 (racemic) , and I need its recorded inhibition at 50 µM.
Output line: 80 to 89%

Input line: I have this molecule here, Cc1ccc(C2CON=C(c3c(Sc4cccc(Cl)c4F)nnc(C)c3C)N2)s1 (racemic) , and I need its recorded inhibition at 50 µM.
Output line: 90 to 100%

----------
- Tested on: Alternaria brassicae
- RUN DESCRIPTION: In vivo preventive test on Alternaria brassicae (leaf spot on radish or cabbage)
- CONDITION DESCRIPTION: 500 ppm of active ingredient, sprayed on young radish or cabbage plants 24 h before inoculation, evaluated 3 to 4 days after inoculation, read-out: efficacy
MEASURED ENDPOINT: pest or weed control at 500 ppm

{"columns": ["MOLECULE", "pest or weed control at 500 ppm"],
 "data": [
  ["Cc1cc([C@H]2CON=C(c3c(Sc4ccc(F)c(F)c4)nnc(C)c3C)N2)c(C)s1 (racemic)", "80 to 89%"]
]}

Input line: I have this molecule here, Cc1ccc(C[C@@H]2CON=C(c3cc(Cl)nnc3Sc3ccc(C(F)(F)F)cc3)N2)c(C)c1 (racemic) , and I need its recorded pest or weed control at 500 ppm.
Output line: 90 to 100%

----------
- RUN DESCRIPTION: Measurement of Log P values by HPLC on reversed phase columns (EEC directive 79/831 Annex V.A8)
- Assay type: physicochemical
- CONDITION DESCRIPTION: Table 1, compounds of formula (I); method [a]: LC-UV, acidic range, 0.1% formic acid in water and acetonitrile
MEASURED ENDPOINT: chromatographic logP
// return a plain number; no unit text

{"columns": ["COMPOUND", "chromatographic logP"],
 "data": [
  ["Cc1ccc(Sc2nnc(C)c(C)c2C2=NOC[C@@H](c3cc(C)sc3C)N2)cc1 (racemic)", 3.36],
  ["Clc1cccc(Sc2nnc(Cl)cc2C2=NOC[C@@H](Cc3ccc(Cl)cc3Cl)N2)c1 (racemic)", 4.73],
  ["Cc1ccc(Sc2nnc3ccccc3c2C2=NOC[C@H](c3ccc(C)s3)N2)c(C)c1 (racemic)", 3.83]
]}

Next up:
Input line: I have this compound here, Cc1ccc(CC2CON=C(c3cc(Cl)nnc3S(=O)(=O)c3cccc(C(F)(F)F)c3)N2)c(C)c1 (racemic) , and I need its recorded chromatographic logP.
Output line: 4.24

----------
- RUN DESCRIPTION: Measurement of Log P values by HPLC on reversed phase columns (EEC directive 79/831 Annex V.A8)
- Format: physicochemical
- CONDITION DESCRIPTION: Table 1, compounds of formula (I); method [a]: LC-UV, acidic range, 0.1% formic acid in water and acetonitrile
In this section, each of the compounds is paired with its reported chromatographic logP.
// return a plain number; no unit text

Known results for compounds:
{"columns": ["COMPOUND", "chromatographic logP"],
 "data": [
  ["Cc1ccc(C[C@H]2CON=C(c3nc(C)ncc3Sc3cccc(OC(F)(F)F)c3)N2)c(C)c1 (racemic)", 5.39],
  ["Cc1cccc(Sc2nnc(C)c(C)c2C2=NOCC(c3ccc(C)s3)N2)c1 (racemic)", 2.99],
  ["Cc1ccc(C2CON=C(c3c(Sc4cccc(Cl)c4F)nnc(C)c3C)N2)s1 (racemic)", 3.21]
]}

Input line: I have this compound here, Cc1ccc(C)c(Sc2nnc3ccccc3c2C2=NOC[C@H](c3ccc(C)s3)N2)c1 (racemic) , and I need its recorded chromatographic logP.
Output line: 3.8

Input line: I have this compound here, Cc1ccc(C2CON=C(c3c(Sc4cccc(Cl)c4)nnc(C)c3C)N2)s1 (racemic) , and I need its recorded chromatographic logP.
Output line: 3.14

Input line: I have this compound here, Cc1cccc(Sc2nnc(Cl)cc2C2=NOC[C@@H](Cc3ccc(Cl)cc3Cl)N2)c1 (racemic) , and I need its recorded chromatographic logP.
Output line: 4.59

Input line: I have this compound here, Cc1ccc([C@@H]2CON=C(c3c(Sc4ccc(C)c(Cl)c4)nnc(C)c3C)N2)s1 (racemic) , and I need its recorded chromatographic logP.
Output line: 3.47

Input line: I have this compound here, Cc1cc([C@@H]2CON=C(c3c(Sc4ccc(OC(F)(F)F)cc4)nnc(C)c3C)N2)c(C)s1 (racemic) , and I need its recorded chromatographic logP.
Output line: 3.87

Input line: I have this compound here, Cc1cc([C@H]2CON=C(c3c(Sc4ccc(Cl)c(Cl)c4)nnc(C)c3C)N2)c(C)s1 (racemic) , and I need its recorded chromatographic logP.
Output line: 3.92

----------
- RUN DESCRIPTION: Measurement of Log P values by HPLC on reversed phase columns (EEC directive 79/831 Annex V.A8)
- Format: physicochemical
- CONDITION DESCRIPTION: Table 1, compounds of formula (I); method [a]: LC-UV, acidic range, 0.1% formic acid in water and acetonitrile
MEASURED ENDPOINT: chromatographic logP
// return a plain number; no unit text

{"columns": ["COMPOUND", "chromatographic logP"],
 "data": [
  ["Cc1ccc([C@@H]2CON=C(c3c(Sc4ccc(OC(F)(F)F)cc4)nnc(C)c3C)N2)s1 (racemic)", 3.52],
  ["Cc1cccc(Sc2nnc(C)c(C)c2C2=NOC[C@H](c3cc(C)sc3C)N2)n1 (racemic)", 2.56]
]}

Next up:
Input line: I have this compound here, FC(F)(F)Oc1cccc(Sc2cnc(Cl)cc2C2=NOC[C@H](Cc3ccc(Cl)cc3Cl)N2)c1 (racemic) , and I need its recorded chromatographic logP.
Output line: 5.13

----------
- Tested on: Colletotrichum lindemuthianum
- RUN DESCRIPTION: In vivo preventive test on Colletotrichum lindemuthianum (leaf spot on bean)
- CONDITION DESCRIPTION: 168 h, 500 ppm of active ingredient, sprayed on young bean plants 24 h before inoculation, evaluated 7 days after inoculation, read-out: efficacy
MEASURED ENDPOINT: pest or weed control at 500 ppm

Known results for compounds:
{"columns": ["COMPOUND", "pest or weed control at 500 ppm"],
 "data": [
  ["Cc1cccc(Sc2nnc(C)c(C)c2C2=NOC[C@H](c3cc(C)sc3C)N2)c1 (racemic)", "90 to 100%"],
  ["Cc1ccc(C[C@H]2CON=C(c3nc(C)ncc3Sc3cccc(OC(F)(F)F)c3)N2)c(C)c1 (racemic)", "80 to 89%"],
  ["Cc1cc([C@H]2CON=C(c3c(Sc4ccccc4)nnc(C)c3C)N2)c(C)s1 (racemic)", "70 to 79%"]
]}

Input line: I have this compound here, Cc1ccc([C@H]2CON=C(c3c(Sc4ccccc4C)nnc4ccccc34)N2)s1 (racemic) , and I need its recorded pest or weed control at 500 ppm.
Output line: 70 to 79%

Input line: I have this compound here, Cc1ccc([C@H]2CON=C(c3c(Sc4cccc(C(F)(F)F)c4)nnc4ccccc34)N2)s1 (racemic) , and I need its recorded pest or weed control at 500 ppm.
Output line: 90 to 100%

Input line: I have this compound here, Cc1cccc(Sc2nnc3ccccc3c2C2=NOC[C@H](c3ccc(C)s3)N2)c1 (racemic) , and I need its recorded pest or weed control at 500 ppm.
Output line: 90 to 100%

Input line: I have this compound here, Cc1cccc(Sc2nnc(C)c(C)c2C2=NOCC(c3ccc(C)s3)N2)c1 (racemic) , and I need its recorded pest or weed control at 500 ppm.
Output line: 70 to 79%

Input line: I have this compound here, Cc1ccc(C[C@@H]2CON=C(c3c(Sc4cccc(C(F)(F)F)c4)nnc4ccccc34)N2)c(C)c1 (racemic) , and I need its recorded pest or weed control at 500 ppm.
Output line: 70 to 79%
